Source listed as patent US11214803B2.

System: Yap1 mRNA
Assay: Antisense inhibition of human Yap1 in SNU-449 cells by modified oligonucleotides, single dose (Example 5, RTS36584)
Assay type: cell-based
Settings: Table 41; SNU-449 cells, 10,000 cells per well, free uptake, 2,000 nM modified oligonucleotide, approximately 48 hours; RTS36584; normalized to RIBOGREEN; Yap1 mRNA relative to untreated control cells
Strand notation (5' to 3'): a small letter for the sugar, then the base; units joined by * are phosphorothioate-linked, units joined directly phosphodiester-linked; [ ] holds rarer units or linkages, { } end groups; capitals alone tell only the bases. e = 2'-O-(2-methoxyethyl) (MOE); k = constrained ethyl (cEt); [5mC] = 5-methylcytosine; d = 2'-deoxy (DNA)
I'd appreciate it if you could supply YAP1 (% UTC) values for the items below.

Incoming: If you can, please state the reported YAP1 (% UTC) value of 1198657 (kA*kG*d[5mC]*dA*d[5mC]*dT*dT*dT*dT*dA*d[5mC]*dA*kT*eT*kA*eG; antisense) [Compound 1198657] .
Outgoing: 95 % UTC

Incoming: // same read-out, input: 1198638 (kA*kG*dA*dG*dT*dA*dT*dG*dT*dG*dG*d[5mC]*kA*eA*kT*eA; antisense) [Compound 1198638]
Outgoing: 18 % UTC

Incoming: Cool, now 1198738 (kA*e[5mC]*kT*dG*dA*dG*dG*dT*dA*dT*dA*dA*e[5mC]*eT*kG*kG; antisense) [Compound 1198738]
Outgoing: 38 % UTC

Incoming: Quick one: 1198672 (antisense kA*kT*dT*dT*dA*dG*dG*dA*dT*dG*d[5mC]*dA*kT*eG*kG*eT) [Compound 1198672]
Outgoing: 41 % UTC

Incoming: // next record 1198770 (k[5mC]*eT*kT*dA*dT*dA*dT*dG*dG*dT*dT*dT*eT*eG*kT*kG; antisense) [Compound 1198770]
Outgoing: 40 % UTC

Incoming: Please answer likewise for 1198774 (kA*eA*k[5mC]*dT*d[5mC]*dT*dT*dA*dT*dA*dT*dG*eG*eT*kT*kT; antisense) [Compound 1198774]
Outgoing: 106 % UTC

Incoming: Quick one: 1198689 (antisense kA*kA*dT*dA*dT*dT*dG*d[5mC]*dA*dA*dT*d[5mC]*kT*eG*kT*e[5mC]) [Compound 1198689]
Outgoing: 91 % UTC

Incoming: Record: 1198629 (kA*kT*dT*dG*dT*d[5mC]*dT*d[5mC]*dA*dT*dG*d[5mC]*k[5mC]*eT*kT*eA; antisense) [Compound 1198629]
Outgoing: 22 % UTC

Incoming: Let us now turn to 1074461 (kG*kA*kA*dA*dT*dT*dG*dT*d[5mC]*dT*d[5mC]*dA*dT*kG*k[5mC]*k[5mC]) [Compound 1074461]
Outgoing: 12 % UTC

Incoming: Follow-up entry: 1198772 (k[5mC]*eT*k[5mC]*dT*dT*dA*dT*dA*dT*dG*dG*dT*eT*eT*kT*kG; antisense) [Compound 1198772]
Outgoing: 41 % UTC

Incoming: Param item: 1198662 (antisense kT*kT*dT*dG*dG*dA*dA*dG*dA*dT*d[5mC]*dT*kG*eA*kA*eA) [Compound 1198662]
Outgoing: 83 % UTC

Incoming: What about this substance? 1198642 (kT*kA*dT*dT*dA*dG*dA*dG*dT*dA*dT*dG*kT*eG*kG*e[5mC]; antisense) [Compound 1198642]
Outgoing: 19 % UTC

Incoming: Same for 1198663 (antisense k[5mC]*kT*dT*dT*dG*dG*dA*dA*dG*dA*dT*d[5mC]*kT*eG*kA*eA) [Compound 1198663]
Outgoing: 76 % UTC
